testMethodNotes: Oral bioavailability in beagle dog at 1 mg/kg
Type: ADME, organism-based, Canis lupus familiaris
assaySetup: in vivo
measuredAttribute: bioavailability (%)
The reply should contain only the number, in %.

Query block: Find the measured bioavailability of CNc1nc(Nc2cnn(CC(C)(C)O)c2Cl)ncc1C(F)(F)F and report it.
Result block: 31

Taken from ChEMBL document CHEMBL2321736.
